System: HCT-116 colon
Test: NCI tumour cell line growth inhibition, 48 h
Please provide measured TGI for the entries that follow.
One number for each entry, in µM.

[Q] Any idea what its TGI is? The molecule is N#Cc1cc2c(cc1Cl)Sc1nnc(Nc3cccc4ccccc34)n1S2(=O)=O
[A] 14.2

[Q] Any idea what its TGI is? The molecule is COc1ccc2nc3cc(Cl)ccc3c(N3CCN(c4ccnc(N5CCN(C)CC5)n4)CC3)c2c1
[A] 3.05

[Q] Any idea what its TGI is? The molecule is COC1=C2CC(C)CC(OC)C(OC(=O)CCCN)C(C)/C=C(\C)C(OC(N)=O)C(OC)/C=C\C=C(/C)C(=O)NC(=CC1=O)C2=O (stereo not given)
[A] 15.9

***
[Q] Any idea what its TGI is? The molecule is COc1cc2c(cc1NC(=O)C(Cl)Cl)-c1ccc(NC(=O)C(Cl)Cl)cc1C2
[A] 0.271

* * *

Tested on: SN12C renal
Test: NCI tumour cell line growth inhibition, 48 h; in the data active = GI50 below about 0.43 µM; inactive = the rest
The reply should name one outcome from YES (active), NO (inactive)

[Q] Recorded test outcome, item COc1cc(-c2ncn(/C=C\c3nnco3)n2)cc(C(F)(F)F)c1
[A] NO

[Q] Recorded test outcome, item Fc1ccc2nc(-c3nc(-c4ccccc4)n4ccccc34)[nH]c2c1
[A] NO

[Q] Recorded test outcome, item S=C(NCc1ccc2c(c1)OCO2)N1CCN(c2ncnc3c2oc2ccccc23)CC1
[A] NO

[Q] Recorded test outcome, item C=CC[N+]1(CC)CCN=C1CCCCCCCCCCCCCCCCC (stereo not given)
[A] NO

[Q] Recorded test outcome, item C/C(=N\NC(=S)N1CCN(c2ccccn2)CC1)c1ncccn1
[A] YES

[Q] Recorded test outcome, item O=C1/C(=C/c2ccccc2[N+](=O)[O-])COc2ccc(O)cc21
[A] NO

[Q] Recorded test outcome, item N#Cc1cc2c(cc1Cl)Sc1nnc(Nc3cccc4ccccc34)n1S2(=O)=O
[A] NO

[Q] Recorded test outcome, item C[C@H]1CN(C2COC2)CCN1c1ccc(Nc2cc(-c3ccnc(N4CCn5c(cc6c5CC(C)(C)C6)C4=O)c3CO)cn(C)c2=O)nc1
[A] NO

[Q] Recorded test outcome, item COc1ccc(S(=O)(=O)N2CCNCC2)cc1OC
[A] NO

Proceed to the following item.
[Q] Recorded test outcome, item c1ccc(C2CCCCC2)c(OCCCCCN2CCNCC2)c1
[A] NO

* * *

Please provide measured TGI for the entries that follow.
Tested on: OVCAR-8 ovarian
Test: NCI tumour cell line growth inhibition, 48 h

[Q] Any idea what its TGI is? The molecule is O=S(=O)(NCCCNc1nccc(-c2c(-c3ccc(F)cc3)nc3sccn23)n1)c1ccc(F)cc1
[A] > 100 µM

[Q] Any idea what its TGI is? The molecule is CSC(=N)N1N=C2/C(=C/c3ccccc3)CCC[C@H]2[C@H]1c1ccccc1
[A] 24.8 µM

[Q] Any idea what its TGI is? The molecule is O=C1/C(=C/c2ccccc2O)N=C(c2ccccc2)N1c1cc(C(F)(F)F)ccc1Cl
[A] > 100 µM

[Q] Any idea what its TGI is? The molecule is COc1ccc(COc2cc3oc(=O)c4cc(C(C)O)ccc4c3cc2OC)cc1 (stereo not given)
[A] 52.2 µM

[Q] Any idea what its TGI is? The molecule is CN(C)CCCn1c2c(c3cc4c(cc3c1=O)OCO4)C(=O)c1ccccc1-2
[A] 0.922 µM

Count: 5. Required value per item: TGI.
1. CCn1ccnc1C(=O)/C=C/c1ccc(CC(=O)Nc2ccc(F)cc2)cc1
2. COc1cc(C(=O)/C=C/c2c(C(F)(F)F)nc3ccccn23)cc(OC)c1OC
3. CC(C)N(C(=O)C12C3C4C1C1C2C3C41C(=O)N(C(C)C)C(C)C)C(C)C (stereo not given)
4. Cc1ccc(S(=O)(=O)N2CCN(S(=O)(=O)c3ccc(C)cc3)CCN(S(=O)(=O)c3ccc(C)cc3)Cc3cc(Br)c(Br)cc3CN(S(=O)(=O)c3ccc(C)cc3)CC2)cc1
5. O=c1[nH]c(=O)n(C2C(CO)OC(CO)C2O)cc1F (stereo not given)

[A]
["> 16.7 µM", "> 100 µM", "> 50 µM", "> 100 µM", "> 100 µM"]

Count: 6. Required value per item: TGI.
1. c1n[nH]cc1C12C3C4C5C3C1C5C42 (stereo not given)
2. Cc1cc2c(c(=O)o1)C1=S(SC(c3ccccc3)=C1)S2 (stereo not given)
3. CC1CCC2(C)C(CC=C(C=O)C2(O)C=O)C12CO2 (stereo not given)
4. O=C(O)CC12CC3CC(CC(O)(C3)C1)C2
5. COc1ccc(C2CC(c3ccc(N(C)C)cc3)=NN2c2ccc(S(N)(=O)=O)cc2)cc1 (stereo not given)
6. Clc1nc(Cl)c2ncn(CCOCCn3cnc4c(Cl)nc(Cl)nc43)c2n1

[A]
["> 100 µM", "> 100 µM", "6.69 µM", "> 100 µM", "> 100 µM", "0.486 µM"]

Count: 4. Required value per item: TGI.
1. COc1ccc(NC(=O)C(=O)Cc2nc3ccc(C(=O)c4ccccc4)cc3[nH]c2=O)c([N+](=O)[O-])c1
2. CC(=O)OCC(CC[CH2][Sn]([Cl])([Cl])[c]1ccccc1)OC(C)=O (stereo not given)
3. Cc1cn(C2CC(O)C(Cn3nncc3Cn3ncc(=O)[nH]c3=O)O2)c(=O)[nH]c1=O (stereo not given)
4. C[C@@]1(OC(=O)c2cc([N+](=O)[O-])cc([N+](=O)[O-])c2)C[C@@H]2CCCC[C@@H]21

[A]
1. 49 µM
2. 32.9 µM
3. > 100 µM
4. > 100 µM

* * *

Tested on: SN12C renal
Test: NCI tumour cell line growth inhibition, 48 h
Please provide measured TGI for the entries that follow.
One number for each entry, in µM.

[Q] Any idea what its TGI is? The molecule is COc1ccc(OC)c(Cc2cnc3nc(N)nc(N)c3c2C)c1
[A] 33.6

[Q] Any idea what its TGI is? The molecule is CC1CCC2C(CN(CC3=C(C(F)(F)F)OC4OC5(C)CCC6C(C)CCC3C46OO5)CC3=C(C(F)(F)F)OC4OC5(C)CCC6C(C)CCC3C46OO5)=C(C(F)(F)F)OC3OC4(C)CCC1C32OO4 (centres undefined)
[A] 48.9

[Q] Any idea what its TGI is? The molecule is CCOC(=O)/C=C\C(C#N)(C#N)N=Cc1ccsc1
[A] 36.3

***
[Q] Any idea what its TGI is? The molecule is CC1CCC2(C)C(CC=C(C=O)C2(O)C=O)C12CO2 (centres undefined)
[A] 8.59

* * *

Please provide measured TGI for the entries that follow.
System: MOLT-4 leukemia
Test: NCI tumour cell line growth inhibition, 48 h
Give bare numbers, in µM.

Count: 4. Required value per item: TGI.
1. CCC(=O)C(CCN1CCC(N2C(=O)C(CCC#N)c3ccccc32)CC1)(c1ccccc1)c1ccccc1 (stereo not given)
2. CSc1ccc2c(cc1=O)C(NC(=O)c1ccc(C#N)cc1)CCc1cc(O)c(O)c(O)c1-2 (stereo not given)
3. c1ccc2c(-c3csc(-c4c[nH]c5ccccc45)n3)c[nH]c2c1
4. O=C1/C(=C/c2ccccc2[N+](=O)[O-])COc2ccc(O)cc21

[A]
1. 25
2. 59
3. 41.4
4. 8.23

* * *

Test system: NCI-H460 lung
Test: NCI tumour cell line growth inhibition, 48 h
Metric: TGI

Solved entries (count: 5):
[Q] Any idea what its TGI is? The compound is NCc1ccc(-c2nc(-c3ccc(Cl)c(O)c3)c(-c3ccncc3)[nH]2)cc1
[A] > 25 µM

[Q] Any idea what its TGI is? The compound is CC(C)N(Cc1ccc(F)cc1)c1ccc(CO)c(Cl)c1
[A] 10.7 µM

[Q] Any idea what its TGI is? The compound is CN1C(=NCCO)NS(=O)(=O)c2ccccc21
[A] > 100 µM

[Q] Any idea what its TGI is? The compound is C[C@@]1(OC(=O)c2cc([N+](=O)[O-])cc([N+](=O)[O-])c2)C[C@@H]2CCCC[C@@H]21
[A] > 100 µM

[Q] Any idea what its TGI is? The compound is O=C(CO)C1CC2C=CC1C2 (stereo unspecified)
[A] > 100 µM

***
[Q] Any idea what its TGI is? The compound is Cn1c(C(=O)c2cccc3ccccc23)nc2ccccc21
[A] > 100 µM

* * *

Tested on: HT29 colon
Test: NCI tumour cell line growth inhibition, 48 h
Metric: TGI

[Q] Any idea what its TGI is? The molecule is Cc1nnc(N/N=C(/C(=O)C(C#N)c2ccc(Cl)cc2)C(C#N)c2ccc(Cl)cc2)n1N (configuration not stated)
[A] 61.9 µM

[Q] Any idea what its TGI is? The molecule is C=CC[N+]1(CC)CCN=C1CCCCCCCCCCCCCCCCC (configuration not stated)
[A] 1.24 µM

[Q] Any idea what its TGI is? The molecule is COC1=C2CC(C)CC(OC)C(OC(=O)CCCN)C(C)/C=C(\C)C(OC(N)=O)C(OC)/C=C\C=C(/C)C(=O)NC(=CC1=O)C2=O (configuration not stated)
[A] 13.2 µM

[Q] Any idea what its TGI is? The molecule is Cc1cccc(CNc2ncnc3[nH]ncc23)c1
[A] > 100 µM

Count: 7. Required value per item: TGI.
1. CSc1c(C#N)c(S)n(-c2ccc(Cl)cc2)c(=O)c1C#N
2. Nc1ccc(-c2nc3ccc(F)cc3s2)cc1I
3. C/C(N=NS(=O)(=O)c1ccc(C)cc1)=C1\C=CC=CN1O
4. CC(C)N(Cc1ccc(F)cc1)c1ccc(CO)c(Cl)c1
5. NC(CCCCNCc1ccccc1O)C(=O)O (configuration not stated)
6. Nc1nc2ncn(CC(O)CO)c2c(=O)[nH]1 (configuration not stated)
7. COc1ccc(/C=N\Nc2nc(SCC(C)C)nc(-c3ccc(OC)cc3)c2C#N)cc1

[A]
1: > 100 µM; 2: > 100 µM; 3: > 100 µM; 4: 14.1 µM; 5: > 100 µM; 6: > 100 µM; 7: 20.1 µM

Count: 8. Required value per item: TGI.
1. CC(=O)CC(=O)CCC(=O)Nc1cccc(C(F)(F)F)c1
2. CC(C)=CCC/C(C)=C/CCC1(C)C=Cc2c(c3ccccc3oc2=O)O1 (configuration not stated)
3. O=c1[nH]c2nc[nH]c2c(=O)n1C1CCCCC1
4. COc1ccccc1C1c2cc3c(cc2OC(N2CCCC2)C1C)OCO3 (configuration not stated)
5. CC(C)N(C(=O)C12C3C4C1C1C2C3C41C(=O)N(C(C)C)C(C)C)C(C)C (configuration not stated)
6. CN(C)CCCn1c2c(c3cc4c(cc3c1=O)OCO4)C(=O)c1ccccc1-2
7. c1ccc2cc3c(cc2c1)OP1(Oc2cccc4cccnc24)(O3)Oc2cc3ccccc3cc2O1
8. CCOC(=O)/C=C\C(C#N)(C#N)N=Cc1ccsc1

[A]
> 100 µM
33.7 µM
> 100 µM
39.5 µM
> 50 µM
> 100 µM
12.6 µM
28.1 µM

Count: 3. Required value per item: TGI.
1. Nc1n[nH]c(CCCCCCCc2nc(N)n[nH]2)n1
2. c1ccc(C2CCCCC2)c(OCCCCCN2CCNCC2)c1
3. Nc1nc(C(=O)O)c(N=Nc2ccccc2)c(=O)[nH]1

[A]
1. > 100 µM
2. 4.9 µM
3. > 100 µM

Count: 2. Required value per item: TGI.
1. CCCCCCCCCCCCC(O)C(=O)O (configuration not stated)
2. CN(C)c1nc(N)c(C#N)c(C#N)c1C#N

[A]
> 100 µM
> 10 µM

Count: 6. Required value per item: TGI.
1. CC(=O)N(CC(=O)C(=O)NNc1ccoc1)c1ccc(Cl)cc1
2. COc1ccc(-n2c(C)nc3ccc(NC4OC(CO)C(O)C(O)C4O)cc3c2=O)cc1 (configuration not stated)
3. C[C@@H](NC(=O)c1ccc(F)cc1)c1ccc2c(c1)CCN2C(=O)C1CCOCC1
4. COc1cc2c(cc1NC(=O)C(Cl)Cl)-c1ccc(NC(=O)C(Cl)Cl)cc1C2
5. O=C(/C=C(\Nc1ccccc1O)c1ccc(Br)cc1)C(Cl)(Cl)Cl
6. Clc1ccc([I+]c2ccc(Cl)cc2Cl)c(Cl)c1

[A]
1. > 100 µM
2. > 100 µM
3. > 100 µM
4. 0.641 µM
5. 20.8 µM
6. 3.26 µM

Count: 5. Required value per item: TGI.
1. CC(C)CCC[C@@H](C)[C@H]1CC[C@H]2C3=C[C@H](OS(=O)(=O)O)[C@@]4(O)C[C@@H](O)CC[C@]4(C)[C@@]3(O)CC[C@]12C
2. Cc1ccc(C2=Nc3ccccc3SC(c3cccc4c3OCO4)C2)cc1 (configuration not stated)
3. c1ccc(C2=C(c3ccccc3)Sc3nnc(CCCCCCCCc4nnc5n4NC(c4ccccc4)=C(c4ccccc4)S5)n3N2)cc1
4. O=C(Nc1ccc2[nH]c(C(=O)N3CC(CCl)c4ccc([N+](=O)[O-])cc43)cc2c1)c1cc2ccccc2o1 (configuration not stated)
5. O=S(=O)(O)c1ccc2cc3nn(-c4ccc(/C=C/c5ccc(-n6nc7cc8ccc(S(=O)(=O)O)cc8cc7n6)cc5S(=O)(=O)O)c(S(=O)(=O)O)c4)nc3cc2c1

[A]
["> 100 µM", "33.2 µM", "> 100 µM", "> 1100 µM", "> 100 µM"]

Count: 2. Required value per item: TGI.
1. CCOC(=O)C(Cc1ccc(N(CCCl)CCCl)cc1)NC(=O)C(Cc1ccccc1)NC(C)=O (configuration not stated)
2. CC1CCC2(C)C(CC=C(C=O)C2(O)C=O)C12CO2 (configuration not stated)

[A]
> 0.219 µM
8.03 µM

Count: 4. Required value per item: TGI.
1. O=c1ccc2ccccc2c2ccccc12
2. N#CNC1=NC(N)C(c2nc3ccccc3[nH]2)=C(CCCC(=O)Nc2cccc([N+](=O)[O-])c2)N1 (configuration not stated)
3. O=c1n(-c2ccccc2)c(=O)n2c(-c3ccccc3)c(-c3ccccc3)n12
4. Cc1ccc(S(=O)(=O)NC(=O)OC23COCN2COC3)cc1

[A]
1: 6.78 µM; 2: > 100 µM; 3: > 100 µM; 4: > 100 µM

[Q] Any idea what its TGI is? The molecule is COc1cc(-c2cc(=O)c3ccccc3[nH]2)cc(OC)c1OC
[A] > 75 µM
